- TEST_TARGET: SARS-CoV-2 Mac1 (Severe acute respiratory syndrome coronavirus 2, UniProt P0DTD1)
- ASSAY_NAME: biochemical
- CONDITION_CONTEXT: read-out: %inhibition
Counter-ions that a name gives are not always drawn. Peptide text beside a SMILES is read from it.
For each entry below, report its inhibition at 100 µM value.
Answers are plain numbers, in %.

COMPOUND	inhibition at 100 µM / %
Nc1ccc(/N=N/c2ccccc2)c(N)n1 [Phenazopyridine HCl]	17
CC(=O)OCC1=C(C(=O)O)N2C(=O)[C@@H](NC(=O)CSc3ccncc3)[C@H]2SC1 [Cephapirin Sodium]	0

Give me inhibition at 100 µM for each of these compounds, listed below.
1. C[C@]12CCC(=O)C(O)=C1CC[C@@H]1[C@@H]2CC[C@]2(C)C(=O)CC[C@@H]12 [Formestane]
2. COc1cc(Nc2ncc3c(n2)-c2ccc(Cl)cc2C(c2c(F)cccc2OC)=NC3)ccc1C(=O)O [Alisertib (MLN8237)]

Reply:
1. 0
2. 8.76

Give me inhibition at 100 µM for each of these compounds, listed below.
1. CCOC(=O)OC(C)OC1=C(C(=O)Nc2ccccn2)N(C)S(=O)(=O)c2ccccc21 (stereo not drawn) [Ampiroxicam]
2. COC(=O)C1=C(C)NC(C)=C(C(=O)OC)C1c1ccccc1[N+](=O)[O-] [Nifedipine]
3. Cn1c(COP(=O)(NCCBr)NCCBr)cnc1[N+](=O)[O-] [Evofosfamide (TH-302)]
4. NC(=O)CC[C@@H](N)C(=O)O [D-glutamine]
5. COC(=O)[C@H](Cc1ccccc1)NC(=O)[C@@H](N)CC(=O)O [Aspartame] (H-Asp-Phe-OMe)

Reply:
[5.86, 16, 12.7, 2.59, 0]

---

For each entry below, report its %inhibition value.
- TEST_TARGET: SARS-CoV-2 Mac1 (Severe acute respiratory syndrome coronavirus 2)
- ASSAY_NAME: biochemical
- CONDITION_CONTEXT: 100 µM; inhibitor
Where a name gives a salt, the structure may show the parent alone.
# output: number + unit

COMPOUND	PROPERTY_MEASURED	RECORDED_MEASUREMENT
CC(=O)NS(=O)(=O)c1ccc(N)cc1 [Sulfacetamide Sodium]	%inhibition	3.132%
CCN(CC)CC(=O)Nc1c(C)cccc1C [Lidocaine hydrochloride]	%inhibition	4.808%
C=C1[C@H](CO)[C@@H](O)C[C@@H]1n1cnc2c(=O)[nH]c(N)nc21 [Entecavir]	%inhibition	0%
O=C1O[C@H]([C@@H](O)CO)C(O)=C1O [Sodium ascorbate]	%inhibition	0%

Turning now to a further record.
Task item: %inhibition lookup needed for COc1nc2ccc(Br)cc2cc1[C@@H](c1ccccc1)[C@@](O)(CCN(C)C)c1cccc2ccccc12 [Bedaquiline fumarate] , thanks.
Reply: 0%

---

- TEST_TARGET: SARS-CoV-2 Mac1 (Severe acute respiratory syndrome coronavirus 2)
- ASSAY_NAME: biochemical
- CONDITION_CONTEXT: read-out: %inhibition
For each entry below, report its inhibition at 100 µM value.
# output: number + unit

Worked examples follow.
COMPOUND	inhibition at 100 µM
COc1cnc(NS(=O)(=O)c2ccc(N)cc2)nc1	0%
S=P(N1CC1)(N1CC1)N1CC1	21.5%
Cn1nnc(-c2ccc(-c3ccc(N4C[C@H](COP(=O)(O)O)OC4=O)cc3F)cn2)n1 [Tedizolid Phosphate]	0%

Give me inhibition at 100 µM for each of these compounds, listed below.
1. Cc1cc(O)ccc1Cl
2. CC1=C(/C=C/C(C)=C/C=C/C(C)=C\C(=O)O)C(C)(C)CCC1
3. NC(=O)c1cccnc1 [Nicotinamide (Vitamin B3)]

Reply:
["24.2%", "0%", "16%"]

Give me inhibition at 100 µM for each of these compounds, listed below.
1. Nc1c(CC(=O)O)cccc1C(=O)c1ccccc1 [Amfenac Sodium Monohydrate]
2. NC(=O)c1ncn([C@@H]2O[C@H](CO)[C@@H](O)[C@H]2O)c1N

Reply:
["4.46%", "14.6%"]
